- target.or.test.system: T1, Mxr1pN150 (Pichia pastoris (Komagataella phaffii), UniProt C4R818 1-150)
- T1 sequence: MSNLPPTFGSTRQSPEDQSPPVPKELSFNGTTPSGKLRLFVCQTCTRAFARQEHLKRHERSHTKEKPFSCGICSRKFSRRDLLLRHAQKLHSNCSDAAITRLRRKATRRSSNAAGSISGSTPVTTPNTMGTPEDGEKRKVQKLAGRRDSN
- method.summary: EMSA; EMSA conditions not given in the material
- recorded.conditions: protein: recombinant; (radiolabeled)
property.label: binding result

The following binders have reported results that may help.
binder: ALD6-1 promoter MXRE2 (dsDNA) DNA 1: CCGCACCCCCGAATTTTCACAAATTACCCCACACCCTATA DNA 2: TATAGGGTGTGGGGTAATTTGTGAAAATTCGGGGGTGCGG
binding result: binds
--
binder: MXRE2-M (dsDNA) DNA 1: CCGCACCCCCGAATTTTCACAAATTACCCAACACCCTATA DNA 2: TATAGGGTGTTGGGTAATTTGTGAAAATTCGGGGGTGCGG
binding result: no binding
--
binder: ALD6-1 promoter MXRE1 (dsDNA) DNA 1: CCGCTCAACGGTTCTCCTCTACATCGTCCCTCTTTTGGAG DNA 2: CTCCAAAAGAGGGACGATGTAGAGGAGAACCGTTGAGCGG
binding result: binds
--
binder: MXRE3-M (dsDNA) DNA 1: ACCCTATACTCAACCACTATGAGGGTTATTAGAACTGATC DNA 2: GATCAGTTCTAATAACCCTCATAGTGGTTGAGTATAGGGT
binding result: no binding
--
binder: MXRE1-M (dsDNA) DNA 1: CCGCTCAACGGTTCTCATCTACATCGTCCCTCTTTTGGAG DNA 2: CTCCAAAAGAGGGACGATGTAGATGAGAACCGTTGAGCGG
binding result: no binding

Next binder, please.
In: Any idea what binding result was measured for ALD6-1 promoter MXRE3 (dsDNA) DNA 1: ACCCTATACTCCACCACTATGAGGGTTATTAGAACTGATC DNA 2: GATCAGTTCTAATAACCCTCATAGTGGTGGAGTATAGGGT ?
Out: binds

The measured values listed here are drawn from paper PMC8526985.
